The reported measurements were obtained from the DeepSol protein solubility set.

protocolText: soluble on expression in E. coli; label from the status in PepcDB or PDB records
endpoint: soluble on expression in E. coli

chain: GSNSQVWSALQMSKALQDSAPDRPSPVERIVSRDIARGYERIPIPCVNAVDSEPCPSNYKYVSQNCVTSPMNIDRNITHLQYCVCIDDCSSSNCMCGQLSMRCWYDKDGRLLPEFNMAEPPLIFECNHACSCWRNCRNRVVQNGLRARLQLYRTRDMGWGVRSLQDIPPGTFVCEYVGELISDSEADVREEDSYLFDLDNKDGEVYCIDARFYGNVSRFINHHCEPNLVPVRVFMAHQDLRFPRIAFFSTRLIEAGEQLGFDYGERFWDIKGKLFSCRCGSPKCRHS
endpoint: soluble on expression in E. coli
result: soluble
//
chain: MAHHHHHHMSPVIALHEDLQKRLEEYRSTRGFSPVKWIEQKCAALNEYMASHGLKVCVTSVSGGIDSAVVLALCSRAMRMPNSPIVRNVGICQPICSSAWALARGRENIQSCGALEVIVDQTELYKQLSRIVETAVGIDGQNFARGQLRSYMRTPVAYYVAQLYSQEGNAAIVMGTGNMDEDGYLAYFCKAGDGVVDVQLISDLHKSEVFRVARELGVPANTLQASPSADLWEGQTDEEELGFPYDFVELYTGWCLQLSDEERQSFLHSLSSDARQQYEKYKDACENTHRRNAHKLRGPINL
endpoint: soluble on expression in E. coli
result: soluble
